// provenance: PubChem BioAssay AID1800

system: Hepatitis C virus NS3 helicase; assay: inhibitors of HCV NS3 helicase, primary screen, biochemical, Cy5 molecular beacon fluorescence (AID 1800); settings: NS3 helicase DNA unwinding, at 10.9 µM, hits give high values;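 note: 0% = DMSO wells and 100% = thioflavine S control wells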
Among all 290,000 compounds or so, about 1,600 (0.55%) were called active. The entries come from a sample that favours actives as a whole.
PROPERTY: inhibition

Quick check: inhibition on Hepatitis C virus NS3 helicase, item COc1cccc(C2Nc3cccc4cccc(c34)N2)c1 ?
-11.8% (inactive)

Same thing, different compound: C=CCSc1nsc(NC(=O)Nc2cccc(C(C)=O)c2)n1
-3.05% (inactive)

Same thing, different compound: Cc1occc1C(=O)N/N=C/c1ccc(-c2cccc([N+](=O)[O-])c2)o1
45.3% (active)

Same thing, different compound: c1ccc(-c2cc(-c3nnc4sc(-c5ccccn5)nn34)[nH]n2)cc1
-7.42% (inactive)

Same thing, different compound: Cc1cc(C(=O)N/N=C/c2ccccc2[N+](=O)[O-])c(C)o1
5.42% (inactive)

Same thing, different compound: O=C(CN1CCN(CC(=O)Nc2ccc3c(c2)OCO3)CC1)Nc1ccc(F)cc1
2% (inactive)

Same thing, different compound: O=C(O)C(c1ccccc1)N1C(=O)/C(=C\c2ccc(-c3cccc(Cl)c3)o2)SC1=S (centres undefined)
8.54% (inactive)

Same thing, different compound: CC(=O)C1=C(O)C(=O)N(c2cccnc2)C1c1ccc([N+](=O)[O-])cc1 (centres undefined)
-3.05% (inactive)

Same thing, different compound: CC(=O)Nc1ccc(C(=O)N(C2=NC(C)CS2)c2ccc(Cl)cc2)cc1 (centres undefined)
-10.2% (inactive)

Same thing, different compound: O=C(CCc1ccccc1F)N1CCN(c2ccccc2)CC1
8.51% (inactive)

Same thing, different compound: O=C(C[C@H]1C(=O)N(c2ccc(F)c(F)c2)C[C@@H]1Cc1ccccc1)Nc1ccccc1
-4.71% (inactive)

Same thing, different compound: Cc1ccc(OCC(=O)Nc2nnc(-c3ccco3)s2)cc1
13.6% (inactive)

Same thing, different compound: Cc1ccc(C2Nc3cccc4cccc(c34)N2)cc1
38.8% (active)

Same thing, different compound: Cc1cc(C)c2nc(-c3ccco3)cc(C(=O)O)c2c1
37.2% (active)

----------
system: Hepatitis C virus NS3 helicase; assay: inhibitors of HCV NS3 helicase, primary screen, biochemical, Cy5 molecular beacon fluorescence (AID 1800); details: NS3 helicase DNA unwinding, at 10.9 µM, hits give high values;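 note: 0% = DMSO wells and 100% = thioflavine S control wells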
Out of some 290,000 compounds screened, about 1,600 (0.55%) were called active. The full list was thinned out, with actives kept by preference.
PROPERTY: inhibition (%)
Your answer should be a plain number; it is taken to be in %.

Quick check: inhibition on Hepatitis C virus NS3 helicase, item CCOC(=O)c1ccccc1N1C(=O)C2Sc3[nH]c(=O)sc3C(/C=C/c3ccccc3)C2C1=O (stereo unspecified) ?
37.9

Same thing, different molecule: CCN(CCCNC(=O)c1ccc2c(c1)NC(=O)CN2C)c1cccc(C)c1
2.74

Same thing, different molecule: CCCOc1ccc(C2C(C(=O)c3ccc(C)o3)=C(O)C(=O)N2CCCn2ccnc2)cc1 (stereo unspecified)
-15.3

Same thing, different molecule: O=C(c1ccco1)N1CCN(C(=S)Nc2cc(F)cc(F)c2)CC1
-5.92

Same thing, different molecule: CC1(C)NC(=O)N(CC(=O)Nc2cc(C(F)(F)F)cc(C(F)(F)F)c2)C1=O
-6.82

Same thing, different molecule: CN1C/C(=C/c2cccs2)C(=O)/C(=C\c2cccs2)C1
9.92

Same thing, different molecule: COCCCNS(=O)(=O)c1cccc(S(=O)(=O)c2cccc(S(=O)(=O)NCCCOC)c2)c1
3.55

Same thing, different molecule: COc1cc2ccccc2cc1C(=O)Nc1ccc(N2CCOCC2)cc1
-2.47

Same thing, different molecule: COC(=O)c1c(C)[nH]c(C(=O)NCCc2ccc(S(N)(=O)=O)cc2)c1C
-6.64

Same thing, different molecule: Cc1cc(N2C(=O)C(O)=C(C(=O)c3ccc(C)o3)C2c2ccc(OCc3ccccc3)cc2)no1 (stereo unspecified)
87.7

Same thing, different molecule: O=C1/C(=C/c2cccs2)CCc2ccccc21
-2.06

Same thing, different molecule: O=Cc1c(NCCc2cccc(F)c2)c2ccccc2[nH]c1=O
0.14

Same thing, different molecule: CN(c1ccccc1)c1ccc(/C=c2\s/c(=C(/C#N)C(=O)C(C)(C)C)n(Cc3ccco3)c2=O)cc1
37

Same thing, different molecule: Cc1cccc(N2CCN(C(C)C(=O)N3CCc4ccccc43)CC2)c1C (stereo unspecified)
-14.8

Same thing, different molecule: CC(=O)c1ccccc1OCc1ccc(C(=O)c2ccccc2)cc1
-8.3

Same thing, different molecule: COc1cc(/C=C2/C(=O)NN(c3ccc(F)cc3)C2=O)cc([N+](=O)[O-])c1O
15.7

Same thing, different molecule: COc1cc(C2C(C(=O)c3ccco3)=C(O)C(=O)N2c2cc(C)on2)ccc1OCc1ccccc1 (stereo unspecified)
43.6

Same thing, different molecule: COC(=O)c1cc(S(=O)(=O)N2CCC(C(N)=O)CC2)oc1C
4.32

Same thing, different molecule: Cc1cc2c(cc1C)N(C(=O)CN1C(=O)c3ccccc3C1=O)C(C)(C)c1ssc(=S)c1-2
-5.01

Same thing, different molecule: O=C(N/N=C/c1ccc([N+](=O)[O-])o1)c1cn(-c2ccccc2)nc1-c1ccc(F)cc1
37

Same thing, different molecule: COc1ccc(/C=C2\SC(=S)N(CCC(=O)Nc3cccc(C(=O)O)c3)C2=O)cc1OC
61

Same thing, different molecule: CCOC(=O)C1Sc2[nH]c(=O)sc2C(c2ccc(Cl)cc2)C1C(=O)OCC (stereo unspecified)
17.4

Same thing, different molecule: CN(CC1CCCO1)S(=O)(=O)c1ccc(C(=O)Nc2ccc([N+](=O)[O-])cc2)cc1 (stereo unspecified)
-4.51

Same thing, different molecule: COc1ccc(/C=C2\SC(=S)N(CCCC(=O)NC3CCCC3)C2=O)cc1OC
19

Same thing, different molecule: COc1cc(/C=C2/C(=O)NN(c3cccc(Cl)c3)C2=O)cc(Br)c1O
64.2

Same thing, different molecule: Cc1cccc(NC(=O)NC(=S)NC(=O)c2ccccc2)c1
7.16
